Assay: qHTS profiling of the MIPE4 collection as inhibitors of Plasmodium falciparum (HB3) proliferation (AID 743347);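 also: plate controls were DMSO vehicle wells for no effect and artemisinin wells for full effect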
Conditions: P. falciparum HB3 in erythrocytes, SYBR Green DNA, 72 h; at 28.5 µM (top of the series) unless noted
The entries below come with measured growth, % of control values attached.
Entry rule: numbers only, all in %.

Field: example entries. Status: answers known.
Oc1ccc([C@@H]2Oc3ccc(O)cc3[C@@H]3CCC[C@@H]32)cc1    81.1
CN1CCCN(C(=O)c2cccc(-c3ccc(C=C4C(=O)Nc5ccc(Cl)cc54)o3)c2)CC1    4.36
C[C@H](NC(=O)C(C#N)=Cc1cccc(Br)n1)c1ccccc1    22
CC1(C)[C@H](O[C@H]2O[C@H](C(=O)O)[C@@H](O)[C@H](O)[C@H]2O[C@@H]2O[C@H](C(=O)O)[C@@H](O)[C@H](O)[C@H]2O)CC[C@@]2(C)[C@H]1CC[C@]1(C)[C@H]2C(=O)C=C2[C@H]3C[C@@](C)(C(=O)O)CC[C@]3(C)CC[C@]21C    109
OC[C@H]1OC(O)C[C@@H](O)[C@H]1O (stereo partly drawn)    86.6
COc1ccc2c(c1OC)C(=O)OC2[C@H]1c2c(cc3c(c2OC)OCO3)CCN1C (stereo partly drawn)    16.4
O=C(O)[C@H](CC(=O)N1C[C@@H]2CCCC[C@H]2C1)Cc1ccccc1    57.9

Next, consider the following compound.
Look up growth, % of control: C[C@@]12C(=O)OC(=O)[C@@]1(C)C1CCC2O1
7.05

====

Test system: Tov112D
Assay: Primary qHTS to identify gynecologic anti-cancer compounds using libraries of approved drugs and bioactive compounds (AID 1345084); also: % is scaled to controls: 0 for no effect and ±100 for the full control effect; nearly all actives have a fitted effect of over 55% in size
Conditions: Gynecologic cancer cell panel viability, ATPlite luminescence, 48 h; series mostly up to 57.5 µM
Inconclusive results are not listed. Activity calls are given as the source filed them. The call rests on the fitted dose curve; in most records, active means well fitted cell-killing curve with a large enough effect; inconclusive means small, poorly fitted or top-dose-only effect, or effect the other way; inactive means flat fitted curve, though single readings scatter.
metric: outcome

OCCNC1CCCc2c1[nH]c1ccc(-c3ccccc3)cc21 (stereo not drawn)    inactive
CC1=C(C(=O)Nc2cc3cn[nH]c3cc2F)C(c2ccc(Cl)cc2F)N=C(c2ccnc(Cl)c2)N1 (stereo not drawn)    inactive
Cc1ccccc1C(=O)Nc1ccc(C(=O)N2CCCC(O)c3cc(Cl)ccc32)c(C)c1 (stereo not drawn)    inactive

====

Target: Cytochrome P450 2C9 (Homo sapiens)
Assay: Cytochrome P450 family 2 subfamily C member 9 (CYP2C9) small molecule antagonists: luciferase biochemical (cell-free) qHTS assay (AID 1645842); also: nearly all actives have a fitted effect of over 55% in size; also: potency is read from the fitted curve at half-maximal effect
Conditions: P450-Glo CYP2C9 enzyme assay, luciferin luminescence; series mostly up to 57.4 µM
Records with an inconclusive call do not appear. Active and inactive are the calls of the source. The call rests on the fitted dose curve; in most records, active means well fitted inhibition curve with a large enough effect in the repeat runs; inconclusive means weak or mixed curves; inactive means no such curve, though single readings can be large or run the other way.
metric: Potency

O=C(Nc1cc2cc[nH]c2cn1)c1ccccc1    4.77 µM (active)
CCCCC(=O)O[C@]1(C(=O)CO)[C@@H](C)C[C@H]2[C@@H]3CCC4=CC(=O)C=C[C@]4(C)[C@@]3(F)[C@@H](O)C[C@@]21C    15.5 µM (active)
C[C@@H](NCc1cc2ccccc2[nH]1)c1cccc2ccccc12    10.7 µM (active)
Cc1ncc(-c2ccnc(Nc3ccc(S(C)(=O)=O)cc3)n2)n1C(C)C    3.79 µM (active)
COc1cc(C)c(C=CC(C)=CC=CC(C)=CC(=O)O)c(C)c1C    23.9 µM (active)
CN1CCc2c(c3ccccc3n2Cc2ccc(C(=O)NO)cc2)C1    inactive
Cc1ccc(-n2[nH]c(C)c(N=Nc3cccc(-c4cccc(C(=O)O)c4)c3O)c2=O)cc1C    inactive
Cc1cn([C@@H]2O[C@H](CO)[C@@H](O)[C@H]2F)c(=O)[nH]c1=O    inactive

# query: Potency | item CC(C)Oc1ccc(C(=O)N[C@H](CNC(=O)CN(C)C)Cc2ccc(-c3cn4cccc([C@H](C)O)c4n3)cc2)cc1Cl | system: Cytochrome P450 2C9 (Homo sapiens)
10.7 µM (active)

# query: Potency | item FC(F)c1nc2ccccc2n1-c1nc(N2CCOCC2)nc(N2CCOCC2)n1 | system: Cytochrome P450 2C9 (Homo sapiens)
1.69 µM (active)
